compounds and their reported Coloration degree (480 nm)
- protocol-description: Maillard reaction with glycine
- Assay type: physicochemical
- experimental-conditions: 1% glycine, 10% saccharide, 50 mM phosphate buffer pH 7.0, 100° C. for 90 min; absorbance in 1-cm cell

compound	Coloration degree (480 nm)
OC[C@H]1O[C@H](O[C@H]2O[C@H](CO)[C@@H](O[C@H]3O[C@H](CO)[C@@H](O[C@H]4O[C@H](CO)[C@@H](O[C@H]5O[C@H](CO)[C@@H](O)[C@H](O)[C@H]5O)[C@H](O)[C@H]4O)[C@H](O)[C@H]3O)[C@H](O)[C@H]2O)[C@H](O)[C@@H](O)[C@@H]1O [P III, α-maltotriosyl trehalose]	0.012
OC[C@H]1O[C@H](O[C@H]2[C@H](O)[C@@H](O)[C@@H](O[C@H]3[C@H](O)[C@@H](O)C(O)O[C@@H]3CO)O[C@@H]2CO)[C@H](O)[C@@H](O)[C@@H]1O (stereo partly shown) [Maltotriose]	0.623
OC[C@H]1O[C@H](O[C@H]2O[C@H](CO)[C@@H](O[C@H]3O[C@H](CO)[C@@H](O)[C@H](O)[C@H]3O)[C@H](O)[C@H]2O)[C@H](O)[C@@H](O)[C@@H]1O [P I, α-glucosyl trehalose]	0.027
OC[C@H]1O[C@H](O[C@H]2O[C@H](CO)[C@@H](O[C@H]3O[C@H](CO)[C@@H](O[C@H]4O[C@H](CO)[C@@H](O[C@H]5O[C@H](CO)[C@@H](O[C@H]6O[C@H](CO)[C@@H](O[C@H]7O[C@H](CO)[C@@H](O)[C@H](O)[C@H]7O)[C@H](O)[C@H]6O)[C@H](O)[C@H]5O)[C@H](O)[C@H]4O)[C@H](O)[C@H]3O)[C@H](O)[C@H]2O)[C@H](O)[C@@H](O)[C@@H]1O [P V, α-maltopentaosyl trehalose]	0.015
OC[C@H]1O[C@H](O[C@H]2O[C@H](CO)[C@@H](O[C@H]3O[C@H](CO)[C@@H](O[C@H]4O[C@H](CO)[C@@H](O[C@H]5O[C@H](CO)[C@@H](O[C@H]6O[C@H](CO)[C@@H](O)[C@H](O)[C@H]6O)[C@H](O)[C@H]5O)[C@H](O)[C@H]4O)[C@H](O)[C@H]3O)[C@H](O)[C@H]2O)[C@H](O)[C@@H](O)[C@@H]1O [P IV, α-maltotetraosyl trehalose]	0.016
OC[C@H]1O[C@H](O[C@H]2[C@H](O)[C@@H](O)[C@@H](O[C@H]3[C@H](O)[C@@H](O)[C@@H](O[C@H]4[C@H](O)[C@@H](O)[C@@H](O[C@H]5[C@H](O)[C@@H](O)C(O)O[C@@H]5CO)O[C@@H]4CO)O[C@@H]3CO)O[C@@H]2CO)[C@H](O)[C@@H](O)[C@@H]1O (stereo partly shown) [Maltopentaose]	0.369
OC[C@H]1O[C@H](O[C@H]2[C@H](O)[C@@H](O)[C@@H](O[C@H]3[C@H](O)[C@@H](O)[C@@H](O[C@H]4[C@H](O)[C@@H](O)C(O)O[C@@H]4CO)O[C@@H]3CO)O[C@@H]2CO)[C@H](O)[C@@H](O)[C@@H]1O (stereo partly shown) [Maltotetraose]	0.475
